Data origin: patent US20170306005A1

# test system: T1, mouse tenascin-C rCd4-His-FBG (rat; mouse, UniProt P05540 207-392, limits assumed)
# T1 construct: domain: domains 3 and 4; C-terminal FBG fusion; biotinylated in the ELISA screen; also called Mu TNC; mouse TNC rCd4-His-FBG; not shown: 6His tag
# T1 sequence (chain (part 1 of 2)): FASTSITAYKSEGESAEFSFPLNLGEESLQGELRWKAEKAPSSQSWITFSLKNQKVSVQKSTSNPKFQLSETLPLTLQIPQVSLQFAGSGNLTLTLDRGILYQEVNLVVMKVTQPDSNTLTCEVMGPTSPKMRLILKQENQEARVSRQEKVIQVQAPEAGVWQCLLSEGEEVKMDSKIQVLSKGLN
# T1 sequence (chain (part 2 of 2)): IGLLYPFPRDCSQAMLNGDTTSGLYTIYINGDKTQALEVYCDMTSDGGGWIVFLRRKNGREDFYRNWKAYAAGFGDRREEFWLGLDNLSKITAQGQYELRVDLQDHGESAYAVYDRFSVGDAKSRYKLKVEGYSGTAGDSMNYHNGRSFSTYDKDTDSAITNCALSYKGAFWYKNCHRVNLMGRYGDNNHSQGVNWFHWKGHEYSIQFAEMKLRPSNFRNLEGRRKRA
# test protocol: SPR, captured Fab, 25 C
experimental readout: kon (M⁻¹ s⁻¹)
Please respond with the number in M⁻¹ s⁻¹ and leave the unit unwritten.

Guide cases for kon, answers given:
| binder | observed result |
| --- | --- |
| Fab D8 (Fab, V domains shown, monomeric Fab) VH: EVQLVQSGAEVKKPGASVKVSCKASGYTFTSYGISWVRQAPGQGLEWMGWISAYNGNTNYAQKLQGRVTMTTDTSTSTAYMELRSLRSDDTAVYYCARNQDSSSDYWGQGTLVTVSS VL: DIQMTQSPASLPTSVGDRVTITCRASQYIQGFLNWYQQKPGKAPKLLIYDASNLETGVPSRFSGSGSGTDFTLTISSLQPEDFATYYCQQSYSTLQTFGQGTKVDIKR | 1.48e+06 |
| Fab F3 (Fab, V domains shown, monomeric Fab) VH: EVQLLESGGGLVQPGGSLRLSCAASGFTFSSYGMHWVRQAPGKGLEWVAVISYDGSNKYYADSVKGRFTISRGNSKNTLYLQMNSLKAEDTAVYYCAREGYDQLFSAESNAFDIWGQGTLVTVSS VL: NFMLAQPHSVSESPGKTVTISCTRSSGSIASYFVQWFQQRPGSAPTAVIYEDNQRPSGVPDRFSGSIDSSSNSASLTISGLKTEDEADYYCQSYDSSNWVFGGGTKVTVLG | 91000 |
| Fab B12 (Fab, V domains shown, monomeric Fab) VH: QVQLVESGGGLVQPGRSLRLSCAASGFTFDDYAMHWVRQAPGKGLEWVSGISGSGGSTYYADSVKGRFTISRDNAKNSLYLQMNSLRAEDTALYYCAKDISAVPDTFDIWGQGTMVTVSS VL: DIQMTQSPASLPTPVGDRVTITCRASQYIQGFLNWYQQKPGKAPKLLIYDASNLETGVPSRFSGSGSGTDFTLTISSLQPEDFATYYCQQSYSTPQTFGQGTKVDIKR | 5.22e+06 |

API: the following record is the query input.
In: Which kon is listed for Fab 2A5 (Fab, V domains shown, monomeric Fab) VH: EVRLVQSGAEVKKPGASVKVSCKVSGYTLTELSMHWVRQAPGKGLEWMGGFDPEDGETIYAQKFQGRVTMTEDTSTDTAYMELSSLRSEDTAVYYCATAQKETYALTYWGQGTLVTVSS VL: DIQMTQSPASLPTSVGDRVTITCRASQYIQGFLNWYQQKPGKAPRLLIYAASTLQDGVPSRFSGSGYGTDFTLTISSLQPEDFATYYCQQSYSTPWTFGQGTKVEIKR ?
Out: 441000
